Measured inhibition, listed per entry for reference.
molecular target: Tubulin (Bos taurus) (UniProt Q6B856+Q862L2+Q862F3); experiment: Inhibition of GTP/glutamate-induced bovine brain tubulin polymerization at 5 uM by […]
Lab book: enter the figure in %, no units written.

>>> reported("C=CC[C@@H](CC/C(C)=C/C=C/CC/C=C\\[C@@H]1COC(C(C)(C)C)=N1)OC")
0

Record C=CC[C@@H](CC[C@@]1(C)C[C@H]1[C@H]1C[C@@H]1CC/C=C\[C@@H]1CSC([C@@H]2C[C@@H]2C)=N1)OC , field inhibition: 0

According to the records, this molecule COc1cc(/C=N\OC/C=C/C=C(\C)CCC(O)c2cccs2)cc(OC)c1OC (centres undefined) displays inhibition of 100
